Exercise: for every item that follows, state its recorded IC50.
# STUDY_TARGET: recombinant human KIF18A (Homo sapiens)
# Sequence (Q8NI77 whole entry): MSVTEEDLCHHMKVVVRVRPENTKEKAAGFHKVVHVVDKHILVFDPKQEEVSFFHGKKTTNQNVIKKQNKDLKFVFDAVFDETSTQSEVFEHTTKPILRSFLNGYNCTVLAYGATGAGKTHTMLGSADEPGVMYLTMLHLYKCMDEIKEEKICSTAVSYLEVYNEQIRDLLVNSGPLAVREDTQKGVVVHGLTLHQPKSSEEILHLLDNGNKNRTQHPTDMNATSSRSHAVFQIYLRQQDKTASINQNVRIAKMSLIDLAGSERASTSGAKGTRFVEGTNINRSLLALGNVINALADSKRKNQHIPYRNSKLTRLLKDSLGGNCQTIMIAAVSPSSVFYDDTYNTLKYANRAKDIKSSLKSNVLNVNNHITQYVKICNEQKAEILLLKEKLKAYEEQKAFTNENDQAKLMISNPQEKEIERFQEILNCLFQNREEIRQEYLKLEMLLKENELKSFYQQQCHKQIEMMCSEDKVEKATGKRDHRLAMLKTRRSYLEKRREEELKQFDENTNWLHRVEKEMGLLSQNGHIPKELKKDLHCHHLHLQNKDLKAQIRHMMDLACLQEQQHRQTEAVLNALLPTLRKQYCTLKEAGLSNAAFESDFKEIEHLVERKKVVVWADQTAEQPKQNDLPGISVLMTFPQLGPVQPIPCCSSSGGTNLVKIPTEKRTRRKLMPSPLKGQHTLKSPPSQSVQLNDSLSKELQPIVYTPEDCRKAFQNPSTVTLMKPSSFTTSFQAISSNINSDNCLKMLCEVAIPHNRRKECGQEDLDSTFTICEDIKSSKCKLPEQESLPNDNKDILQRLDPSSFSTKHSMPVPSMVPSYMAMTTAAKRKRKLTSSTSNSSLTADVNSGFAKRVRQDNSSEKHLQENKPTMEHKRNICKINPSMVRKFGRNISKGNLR
# Sequence (P68363 whole entry partner): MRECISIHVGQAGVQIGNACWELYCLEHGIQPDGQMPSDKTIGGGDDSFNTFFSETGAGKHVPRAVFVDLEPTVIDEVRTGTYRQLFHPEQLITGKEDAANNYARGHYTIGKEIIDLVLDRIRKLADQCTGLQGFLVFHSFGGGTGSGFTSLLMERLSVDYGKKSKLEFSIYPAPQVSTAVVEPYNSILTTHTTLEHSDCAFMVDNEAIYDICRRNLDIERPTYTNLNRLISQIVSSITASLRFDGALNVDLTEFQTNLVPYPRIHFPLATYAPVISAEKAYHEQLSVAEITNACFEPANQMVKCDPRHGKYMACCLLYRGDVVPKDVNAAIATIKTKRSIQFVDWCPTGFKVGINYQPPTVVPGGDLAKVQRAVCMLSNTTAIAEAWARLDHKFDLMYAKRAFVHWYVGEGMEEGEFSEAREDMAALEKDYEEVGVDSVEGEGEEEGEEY
# Sequence (Q9BVA1 whole entry partner): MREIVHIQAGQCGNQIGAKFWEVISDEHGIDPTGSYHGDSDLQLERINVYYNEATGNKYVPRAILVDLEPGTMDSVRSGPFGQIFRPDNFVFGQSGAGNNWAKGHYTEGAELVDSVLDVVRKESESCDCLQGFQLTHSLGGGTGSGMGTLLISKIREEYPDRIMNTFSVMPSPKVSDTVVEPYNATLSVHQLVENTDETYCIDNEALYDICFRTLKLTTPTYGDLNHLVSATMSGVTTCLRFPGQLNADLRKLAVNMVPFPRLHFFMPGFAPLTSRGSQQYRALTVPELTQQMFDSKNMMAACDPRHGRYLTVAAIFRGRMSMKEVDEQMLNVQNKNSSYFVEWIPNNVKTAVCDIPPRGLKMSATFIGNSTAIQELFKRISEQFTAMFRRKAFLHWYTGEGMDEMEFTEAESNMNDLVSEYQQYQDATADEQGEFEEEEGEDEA
# EXPERIMENT_SUMMARY: Inhibition on KIF18A enzyme activity (ADP-Glo)
# EXPERIMENTAL_CONDITIONS: recombinant human KIF18A 100 nM, ATP 60 μM
Give just the number in nM; leave the unit off.

Give its IC50 value. Item: O=C(Nc1cc2c(c(N3CCC(F)(F)CC3)c1)OCC2)c1ccc(NS(=O)(=O)CCO)cc1N1CCC2(CC1)CC2 [Example 29] 316

Sample CCS(=O)(=O)Nc1ccc(C(=O)Nc2cc3c(c(N4CCC(F)(F)CC4)c2)OCC3)c(N2CCC3(CC2)CC3)c1 [Example 1] — what was its IC50? 52
